organism: Rattus norvegicus; experiment: DrugMatrix - Regimen: Daily Repeat; type: toxicity, organism-based, Sprague-Dawley; design: regimen Daily Repeat, gender Male, age 6-8 weeks; details: in vivo, po, 0 mg/kg, 72 h, tissue Blood, route oral GAVAGE, dose level Control, time 3 day, […]
MEASUREMENT TYPE: NEUTROPHIL (%)
The reply should contain only the number, in %.

NEUTROPHIL for Cc1oncc1C(=O)Nc1ccc(C(F)(F)F)cc1 [LEFLUNOMIDE] ?
11.33

Param item: Cc1ccc(-c2cc(C(F)(F)F)nn2-c2ccc(S(N)(=O)=O)cc2)cc1
10

Param item: O=c1oc2ccccc2c(O)c1Cc1c(O)c2ccccc2oc1=O
8.67

Param item: CCC(C)n1ncn(-c2ccc(N3CCN(c4ccc(OCC5COC(Cn6cncn6)(c6ccc(Cl)cc6Cl)O5)cc4)CC3)cc2)c1=O (centres undefined)
10

* * *

Assign ALBUMIN to each entry below.
species on record: Rattus norvegicus; assay: DrugMatrix - Regimen: Daily Repeat; type: toxicity, organism-based, Sprague-Dawley; set-up: regimen Daily Repeat, gender Male, age 6-8 weeks; conditions: in vivo, po, 0 mg/kg, 120 h, tissue Plasma, route oral GAVAGE, dose level Control, time 5 day, vehicle .5 % CMC
The reply should contain only the number, in G/DL.

ALBUMIN for ClC(Br)Br ?
4.4

Param item: CC(C)(C)NC(=O)[C@@H]1C[C@@H]2CCCC[C@@H]2CN1C[C@@H](O)[C@H](Cc1ccccc1)NC(=O)[C@H](CC(N)=O)NC(=O)c1ccc2ccccc2n1
4.38

Param item: COc1nc(C)nc(Cl)c1N=C1NCCN1
4.27

Param item: Nc1ccn([C@H]2CC[C@@H](CO)O2)c(=O)n1
4.2

Param item: CCn1cc(C(=O)O)c(=O)c2cc(F)c(N3CCNCC3)cc21
4.22

Param item: Cc1nc2n(c(=O)c1CCN1CCC(c3noc4cc(F)ccc34)CC1)CCCC2
4.02

Param item: ClC(Cl)Br
4.4

Param item: CCCN1C[C@H](CSC)C[C@@H]2c3cccc4[nH]cc(c34)C[C@H]21 [PERGOLIDE]
4.22

Param item: CC1CC(OC(=O)C(O)c2ccccc2)CC(C)(C)C1 (configuration not stated) [CYCLANDELATE]
3.82

Param item: O=C(CCCN1CC=C(n2c(=O)[nH]c3ccccc32)CC1)c1ccc(F)cc1
3.77

Param item: CN1CCN(CCCN2c3ccccc3Sc3ccc(Cl)cc32)CC1
4.27

Param item: NC1=NC(=O)C(c2ccccc2)O1 (configuration not stated)
3.55

Param item: Cc1ccc(/N=C/N(C)/C=N/c2ccc(C)cc2C)c(C)c1
4.22

Param item: N=C(N)NCCN1CCCCCCC1
3.82

Param item: CCCCc1oc2ccccc2c1C(=O)c1cc(I)c(OCCN(CC)CC)c(I)c1
4.02

Param item: CCOP(=S)(OCC)Oc1nc(Cl)c(Cl)cc1Cl
4

Param item: OCCN(CCO)c1nc(N2CCCCC2)c2nc(N(CCO)CCO)nc(N3CCCCC3)c2n1
3.82

* * *

species: Rattus norvegicus; test: DrugMatrix - Regimen: Daily Repeat; type: toxicity, organism-based, Sprague-Dawley; design: regimen Daily Repeat, gender Male, age 6-8 weeks; settings: in vivo, po, 0 mg/kg, 72 h, tissue Blood, route oral GAVAGE, dose level Control, time 3 day, […]
MEASUREMENT TYPE: MEAN CORPUSCULAR VOLUME (fL)
The reply should contain only the number, in fL.

MEAN CORPUSCULAR VOLUME for CN(C)c1nc(N(C)C)nc(N(C)C)n1 ?
62.9

Param item: O=c1oc2ccccc2c(O)c1Cc1c(O)c2ccccc2oc1=O
62.75

Param item: O=NN(CCCl)C(=O)NC1CCCCC1
62.9

Param item: C[C@@H]1CN(c2c(F)c(N)c3c(=O)c(C(=O)O)cn(C4CC4)c3c2F)C[C@H](C)N1
62.9

Param item: CC(C)(Oc1ccc(Cl)cc1)C(=O)O
61.23

Param item: Cc1oncc1C(=O)Nc1ccc(C(F)(F)F)cc1 [LEFLUNOMIDE]
62.93

Param item: CCC(C)n1ncn(-c2ccc(N3CCN(c4ccc(OCC5COC(Cn6cncn6)(c6ccc(Cl)cc6Cl)O5)cc4)CC3)cc2)c1=O (configuration not stated)
62.97

Param item: O=C(O)CCCc1ccc(N(CCCl)CCCl)cc1
62.97

Param item: Cc1ccc(-c2cc(C(F)(F)F)nn2-c2ccc(S(N)(=O)=O)cc2)cc1
62.97

Param item: OC(Cn1cncn1)(Cn1cncn1)c1ccc(F)cc1F
62.97

Param item: C[C@H]1O[C@@H](O[C@H]2[C@@H](O)C[C@H](O[C@H]3[C@@H](O)C[C@H](O[C@H]4CC[C@@]5(C)[C@H](CC[C@@H]6[C@@H]5C[C@@H](O)[C@]5(C)[C@@H](C7=CC(=O)OC7)CC[C@]65O)C4)O[C@@H]3C)O[C@@H]2C)C[C@H](O)[C@@H]1O
61.62

Param item: CC(C)C(=O)Nc1ccc([N+](=O)[O-])c(C(F)(F)F)c1 [FLUTAMIDE]
62.38

* * *

species: Rattus norvegicus; test: DrugMatrix - Regimen: Daily Repeat; format: toxicity, organism-based, Sprague-Dawley; parameters: regimen Daily Repeat, gender Male, age 6-8 weeks; settings: in vivo, iv, 0 mg/kg, 120 h, tissue Plasma, dose level Control, time 5 day, vehicle 100 % SALINE
Starred links: 1 amine or outer side, 2 acyl side, 3 side chain; linkers in the order of their positions; H or OH if unused. Positions of bridges follow the written chain, without caps; N, C: chain ends. Non-standard residues stand in square brackets, D forms with d. Residues, ends and D or L forms follow the SMILES beside them. Chains are numbered I, II in the order given. Actinocin(9to1) = Cc1c2oc3c(C)ccc(C(=O)[*:1])c3nc-2c(C(=O)[*:2])c(N)c1=O; NMeV = CN[C@H](C(=O)O)C(C)C; Sar = CNCC(=O)O
MEASUREMENT TYPE: LIPASE

LIPASE for Cc1c2oc3c(C)ccc(C(=O)N[C@@H]4C(=O)N[C@H](C(C)C)C(=O)N5CCC[C@H]5C(=O)N(C)CC(=O)N(C)[C@@H](C(C)C)C(=O)O[C@@H]4C)c3nc-2c(C(=O)N[C@@H]2C(=O)N[C@H](C(C)C)C(=O)N3CCC[C@H]3C(=O)N(C)CC(=O)N(C)[C@@H](C(C)C)C(=O)O[C@@H]2C)c(N)c1=O [DACTINOMYCIN] (I: T[dV]P[Sar][NMeV] / II: T[dV]P[Sar][NMeV]; ester I:1-I:C, II:1-II:C; linker I:N-II:N via Actinocin(9to1)) ?
11 u/L

* * *

Assign LEUKOCYTE COUNT to each entry below.
species: Rattus norvegicus; test: DrugMatrix - Regimen: Daily Repeat; assay type: toxicity, organism-based, Sprague-Dawley; parameters: regimen Daily Repeat, gender Male, age 6-8 weeks; conditions: in vivo, po, 0 mg/kg, […], tissue Blood, route oral GAVAGE, dose level Control, time 14 day, vehicle .5 % CMC
The reply should contain only the number, in x10E3/uL.

LEUKOCYTE COUNT for ClC(Cl)Br ?
16.7

Param item: ClC(Br)Br
16.7

Param item: CCOP(=S)(OCC)Oc1nc(Cl)c(Cl)cc1Cl
16.49

Param item: COc1ccc(C(=O)Nc2c(Cl)c[n+]([O-])cc2Cl)c2ccc(C(F)(F)F)nc12
13.55

* * *

species: Rattus norvegicus; experiment: DrugMatrix - Regimen: Daily Repeat; format: toxicity, organism-based, Sprague-Dawley; parameters: regimen Daily Repeat, gender Male, age 6-8 weeks; settings: in vivo, po, 0 mg/kg, 120 h, tissue Blood, route oral GAVAGE, dose level Control, time 5 day, […]
Outcome: MET for PLATELET COUNT of at least 900 x10E3/uL; NOT MET for anything lower.

In plain terms: is recorded PLATELET COUNT at least 900 x10E3/uL for O=NN(CCCl)C(=O)NC1CCCCC1 [LOMUSTINE] ?
NOT MET

Param item: Cc1oncc1C(=O)Nc1ccc(C(F)(F)F)cc1 [LEFLUNOMIDE]
MET

Param item: CCC(C)n1ncn(-c2ccc(N3CCN(c4ccc(OCC5COC(Cn6cncn6)(c6ccc(Cl)cc6Cl)O5)cc4)CC3)cc2)c1=O (centres undefined) [ITRACONAZOLE]
MET

Param item: CN(C)c1nc(N(C)C)nc(N(C)C)n1 [ALTRETAMINE]
NOT MET

Param item: Cc1ccc(-c2cc(C(F)(F)F)nn2-c2ccc(S(N)(=O)=O)cc2)cc1 [CELECOXIB]
MET

Param item: CC(C)(Oc1ccc(Cl)cc1)C(=O)O [CLOFIBRIC ACID]
MET

Param item: CCOC(=O)C1=C(COCCN)NC(C)=C(C(=O)OC)C1c1ccccc1Cl (centres undefined) [AMLODIPINE]
NOT MET

Param item: OC(Cn1cncn1)(Cn1cncn1)c1ccc(F)cc1F [FLUCONAZOLE]
MET

Param item: C[C@@H]1CN(c2c(F)c(N)c3c(=O)c(C(=O)O)cn(C4CC4)c3c2F)C[C@H](C)N1 [SPARFLOXACIN]
NOT MET

Param item: O=C(O)CCCc1ccc(N(CCCl)CCCl)cc1 [CHLORAMBUCIL]
MET

Param item: C[C@H]1O[C@@H](O[C@H]2[C@@H](O)C[C@H](O[C@H]3[C@@H](O)C[C@H](O[C@H]4CC[C@@]5(C)[C@H](CC[C@@H]6[C@@H]5C[C@@H](O)[C@]5(C)[C@@H](C7=CC(=O)OC7)CC[C@]65O)C4)O[C@@H]3C)O[C@@H]2C)C[C@H](O)[C@@H]1O [DIGOXIN]
MET

Param item: CC(C)C(=O)Nc1ccc([N+](=O)[O-])c(C(F)(F)F)c1 [FLUTAMIDE]
MET

Param item: Cc1noc(NS(=O)(=O)c2ccc(N)cc2)c1C [SULFISOXAZOLE]
MET

// provenance: ChEMBL document CHEMBL3885881
